Recorded normalized RNA/DNA level without ligand (log10) values for a group of variants are listed next.
B1: library; a variant is named by its letters at N, in order (parent)
chain: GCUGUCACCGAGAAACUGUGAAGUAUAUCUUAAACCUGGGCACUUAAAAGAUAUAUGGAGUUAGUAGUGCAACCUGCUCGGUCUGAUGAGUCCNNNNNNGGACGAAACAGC

# Variants of: B1
# assay_comment: normalized RNA/DNA level without ligand (relative to sTRSVctl = 100) (log10 (% of sTRSVctl)); HEK293T; ligand: cyclic di-GMP (c-di-GMP-II aptamer); higher = less ribozyme self-cleavage, higher mRNA level
# setup_conditions: reporter: mCherry (pCS4076), ligand present: no
readout_name: normalized RNA/DNA level without ligand (log10)

INSERT INTO results (sequence_input, recorded_number) VALUES
  ('GCUGUCACCGAGAAACUGUGAAGUAUAUCUUAAACCUGGGCACUUAAAAGAUAUAUGGAGUUAGUAGUGCAACCUGCUCGGUCUGAUGAGUCCGUUACGGGACGAAACAGC [GUUACG]', 1.65),
  ('GCUGUCACCGAGAAACUGUGAAGUAUAUCUUAAACCUGGGCACUUAAAAGAUAUAUGGAGUUAGUAGUGCAACCUGCUCGGUCUGAUGAGUCCUCGCGAGGACGAAACAGC [UCGCGA]', 1.67),
  ('GCUGUCACCGAGAAACUGUGAAGUAUAUCUUAAACCUGGGCACUUAAAAGAUAUAUGGAGUUAGUAGUGCAACCUGCUCGGUCUGAUGAGUCCUUUGUAGGACGAAACAGC [UUUGUA]', 1.71),
  ('GCUGUCACCGAGAAACUGUGAAGUAUAUCUUAAACCUGGGCACUUAAAAGAUAUAUGGAGUUAGUAGUGCAACCUGCUCGGUCUGAUGAGUCCCCAGCGGGACGAAACAGC [CCAGCG]', 1.76),
  ('GCUGUCACCGAGAAACUGUGAAGUAUAUCUUAAACCUGGGCACUUAAAAGAUAUAUGGAGUUAGUAGUGCAACCUGCUCGGUCUGAUGAGUCCGCCACAGGACGAAACAGC [GCCACA]', 1.65),
  ('GCUGUCACCGAGAAACUGUGAAGUAUAUCUUAAACCUGGGCACUUAAAAGAUAUAUGGAGUUAGUAGUGCAACCUGCUCGGUCUGAUGAGUCCUACUAUGGACGAAACAGC [UACUAU]', 1.67),
  ('GCUGUCACCGAGAAACUGUGAAGUAUAUCUUAAACCUGGGCACUUAAAAGAUAUAUGGAGUUAGUAGUGCAACCUGCUCGGUCUGAUGAGUCCGCAAUUGGACGAAACAGC [GCAAUU]', 1.48),
  ('GCUGUCACCGAGAAACUGUGAAGUAUAUCUUAAACCUGGGCACUUAAAAGAUAUAUGGAGUUAGUAGUGCAACCUGCUCGGUCUGAUGAGUCCACGGCUGGACGAAACAGC [ACGGCU]', 1.56),
  ('GCUGUCACCGAGAAACUGUGAAGUAUAUCUUAAACCUGGGCACUUAAAAGAUAUAUGGAGUUAGUAGUGCAACCUGCUCGGUCUGAUGAGUCCACGAUUGGACGAAACAGC [ACGAUU]', 1.2),
  ('GCUGUCACCGAGAAACUGUGAAGUAUAUCUUAAACCUGGGCACUUAAAAGAUAUAUGGAGUUAGUAGUGCAACCUGCUCGGUCUGAUGAGUCCAUCGAGGGACGAAACAGC [AUCGAG]', 1.56),
  ('GCUGUCACCGAGAAACUGUGAAGUAUAUCUUAAACCUGGGCACUUAAAAGAUAUAUGGAGUUAGUAGUGCAACCUGCUCGGUCUGAUGAGUCCUAGUCCGGACGAAACAGC [UAGUCC]', 1.72),
  ('GCUGUCACCGAGAAACUGUGAAGUAUAUCUUAAACCUGGGCACUUAAAAGAUAUAUGGAGUUAGUAGUGCAACCUGCUCGGUCUGAUGAGUCCGCAUGUGGACGAAACAGC [GCAUGU]', 1.49),
  ('GCUGUCACCGAGAAACUGUGAAGUAUAUCUUAAACCUGGGCACUUAAAAGAUAUAUGGAGUUAGUAGUGCAACCUGCUCGGUCUGAUGAGUCCCUCACCGGACGAAACAGC [CUCACC]', 1.7),
  ('GCUGUCACCGAGAAACUGUGAAGUAUAUCUUAAACCUGGGCACUUAAAAGAUAUAUGGAGUUAGUAGUGCAACCUGCUCGGUCUGAUGAGUCCUUAUAAGGACGAAACAGC [UUAUAA]', 1.64),
  ('GCUGUCACCGAGAAACUGUGAAGUAUAUCUUAAACCUGGGCACUUAAAAGAUAUAUGGAGUUAGUAGUGCAACCUGCUCGGUCUGAUGAGUCCCGAAGUGGACGAAACAGC [CGAAGU]', 1.68),
  ('GCUGUCACCGAGAAACUGUGAAGUAUAUCUUAAACCUGGGCACUUAAAAGAUAUAUGGAGUUAGUAGUGCAACCUGCUCGGUCUGAUGAGUCCCGAUAGGGACGAAACAGC [CGAUAG]', 1.7),
  ('GCUGUCACCGAGAAACUGUGAAGUAUAUCUUAAACCUGGGCACUUAAAAGAUAUAUGGAGUUAGUAGUGCAACCUGCUCGGUCUGAUGAGUCCCAGCACGGACGAAACAGC [CAGCAC]', 1.65),
  ('GCUGUCACCGAGAAACUGUGAAGUAUAUCUUAAACCUGGGCACUUAAAAGAUAUAUGGAGUUAGUAGUGCAACCUGCUCGGUCUGAUGAGUCCUGUUAGGGACGAAACAGC [UGUUAG]', 1.74),
  ('GCUGUCACCGAGAAACUGUGAAGUAUAUCUUAAACCUGGGCACUUAAAAGAUAUAUGGAGUUAGUAGUGCAACCUGCUCGGUCUGAUGAGUCCGGUUACGGACGAAACAGC [GGUUAC]', 1.76),
  ('GCUGUCACCGAGAAACUGUGAAGUAUAUCUUAAACCUGGGCACUUAAAAGAUAUAUGGAGUUAGUAGUGCAACCUGCUCGGUCUGAUGAGUCCGACGGCGGACGAAACAGC [GACGGC]', 1.63),
  ('GCUGUCACCGAGAAACUGUGAAGUAUAUCUUAAACCUGGGCACUUAAAAGAUAUAUGGAGUUAGUAGUGCAACCUGCUCGGUCUGAUGAGUCCGUUGUGGGACGAAACAGC [GUUGUG]', 1.66),
  ('GCUGUCACCGAGAAACUGUGAAGUAUAUCUUAAACCUGGGCACUUAAAAGAUAUAUGGAGUUAGUAGUGCAACCUGCUCGGUCUGAUGAGUCCUAACGCGGACGAAACAGC [UAACGC]', 1.66),
  ('GCUGUCACCGAGAAACUGUGAAGUAUAUCUUAAACCUGGGCACUUAAAAGAUAUAUGGAGUUAGUAGUGCAACCUGCUCGGUCUGAUGAGUCCGACUCUGGACGAAACAGC [GACUCU]', 1.7),
  ('GCUGUCACCGAGAAACUGUGAAGUAUAUCUUAAACCUGGGCACUUAAAAGAUAUAUGGAGUUAGUAGUGCAACCUGCUCGGUCUGAUGAGUCCCGGCCAGGACGAAACAGC [CGGCCA]', 1.57),
  ('GCUGUCACCGAGAAACUGUGAAGUAUAUCUUAAACCUGGGCACUUAAAAGAUAUAUGGAGUUAGUAGUGCAACCUGCUCGGUCUGAUGAGUCCGUCUCCGGACGAAACAGC [GUCUCC]', 1.82),
  ('GCUGUCACCGAGAAACUGUGAAGUAUAUCUUAAACCUGGGCACUUAAAAGAUAUAUGGAGUUAGUAGUGCAACCUGCUCGGUCUGAUGAGUCCCACUAGGGACGAAACAGC [CACUAG]', 1.76),
  ('GCUGUCACCGAGAAACUGUGAAGUAUAUCUUAAACCUGGGCACUUAAAAGAUAUAUGGAGUUAGUAGUGCAACCUGCUCGGUCUGAUGAGUCCGACUAAGGACGAAACAGC [GACUAA]', 1.55),
  ('GCUGUCACCGAGAAACUGUGAAGUAUAUCUUAAACCUGGGCACUUAAAAGAUAUAUGGAGUUAGUAGUGCAACCUGCUCGGUCUGAUGAGUCCUUACACGGACGAAACAGC [UUACAC]', 1.73),
  ('GCUGUCACCGAGAAACUGUGAAGUAUAUCUUAAACCUGGGCACUUAAAAGAUAUAUGGAGUUAGUAGUGCAACCUGCUCGGUCUGAUGAGUCCUCUGAGGGACGAAACAGC [UCUGAG]', 1.66),
  ('GCUGUCACCGAGAAACUGUGAAGUAUAUCUUAAACCUGGGCACUUAAAAGAUAUAUGGAGUUAGUAGUGCAACCUGCUCGGUCUGAUGAGUCCUAUGGAGGACGAAACAGC [UAUGGA]', 1.53),
  ('GCUGUCACCGAGAAACUGUGAAGUAUAUCUUAAACCUGGGCACUUAAAAGAUAUAUGGAGUUAGUAGUGCAACCUGCUCGGUCUGAUGAGUCCACGCUUGGACGAAACAGC [ACGCUU]', 1.37),
  ('GCUGUCACCGAGAAACUGUGAAGUAUAUCUUAAACCUGGGCACUUAAAAGAUAUAUGGAGUUAGUAGUGCAACCUGCUCGGUCUGAUGAGUCCGUAAGUGGACGAAACAGC [GUAAGU]', 1.65),
  ('GCUGUCACCGAGAAACUGUGAAGUAUAUCUUAAACCUGGGCACUUAAAAGAUAUAUGGAGUUAGUAGUGCAACCUGCUCGGUCUGAUGAGUCCGUUUCCGGACGAAACAGC [GUUUCC]', 1.82),
  ('GCUGUCACCGAGAAACUGUGAAGUAUAUCUUAAACCUGGGCACUUAAAAGAUAUAUGGAGUUAGUAGUGCAACCUGCUCGGUCUGAUGAGUCCUACCCUGGACGAAACAGC [UACCCU]', 1.74),
  ('GCUGUCACCGAGAAACUGUGAAGUAUAUCUUAAACCUGGGCACUUAAAAGAUAUAUGGAGUUAGUAGUGCAACCUGCUCGGUCUGAUGAGUCCGCUCCUGGACGAAACAGC [GCUCCU]', 1.71),
  ('GCUGUCACCGAGAAACUGUGAAGUAUAUCUUAAACCUGGGCACUUAAAAGAUAUAUGGAGUUAGUAGUGCAACCUGCUCGGUCUGAUGAGUCCACCAUUGGACGAAACAGC [ACCAUU]', 1.56),
  ('GCUGUCACCGAGAAACUGUGAAGUAUAUCUUAAACCUGGGCACUUAAAAGAUAUAUGGAGUUAGUAGUGCAACCUGCUCGGUCUGAUGAGUCCAAAACGGGACGAAACAGC [AAAACG]', 1.5),
  ('GCUGUCACCGAGAAACUGUGAAGUAUAUCUUAAACCUGGGCACUUAAAAGAUAUAUGGAGUUAGUAGUGCAACCUGCUCGGUCUGAUGAGUCCGGUGAUGGACGAAACAGC [GGUGAU]', 1.67),
  ('GCUGUCACCGAGAAACUGUGAAGUAUAUCUUAAACCUGGGCACUUAAAAGAUAUAUGGAGUUAGUAGUGCAACCUGCUCGGUCUGAUGAGUCCAGGCAGGGACGAAACAGC [AGGCAG]', 1.76),
  ('GCUGUCACCGAGAAACUGUGAAGUAUAUCUUAAACCUGGGCACUUAAAAGAUAUAUGGAGUUAGUAGUGCAACCUGCUCGGUCUGAUGAGUCCACGUCGGGACGAAACAGC [ACGUCG]', 1.61),
  ('GCUGUCACCGAGAAACUGUGAAGUAUAUCUUAAACCUGGGCACUUAAAAGAUAUAUGGAGUUAGUAGUGCAACCUGCUCGGUCUGAUGAGUCCAGUAGAGGACGAAACAGC [AGUAGA]', 1.36),
  ('GCUGUCACCGAGAAACUGUGAAGUAUAUCUUAAACCUGGGCACUUAAAAGAUAUAUGGAGUUAGUAGUGCAACCUGCUCGGUCUGAUGAGUCCCUAACGGGACGAAACAGC [CUAACG]', 1.77),
  ('GCUGUCACCGAGAAACUGUGAAGUAUAUCUUAAACCUGGGCACUUAAAAGAUAUAUGGAGUUAGUAGUGCAACCUGCUCGGUCUGAUGAGUCCACUGAUGGACGAAACAGC [ACUGAU]', 1.43),
  ('GCUGUCACCGAGAAACUGUGAAGUAUAUCUUAAACCUGGGCACUUAAAAGAUAUAUGGAGUUAGUAGUGCAACCUGCUCGGUCUGAUGAGUCCGUGUAGGGACGAAACAGC [GUGUAG]', 1.7),
  ('GCUGUCACCGAGAAACUGUGAAGUAUAUCUUAAACCUGGGCACUUAAAAGAUAUAUGGAGUUAGUAGUGCAACCUGCUCGGUCUGAUGAGUCCUGGGCCGGACGAAACAGC [UGGGCC]', 1.94),
  ('GCUGUCACCGAGAAACUGUGAAGUAUAUCUUAAACCUGGGCACUUAAAAGAUAUAUGGAGUUAGUAGUGCAACCUGCUCGGUCUGAUGAGUCCGUCUGUGGACGAAACAGC [GUCUGU]', 1.66);
